The measured values listed here are drawn from ChEMBL document CHEMBL1155862.

# target.of.assay: Nociceptin receptor (Homo sapiens, UniProt P41146)
# Sequence (P41146 whole entry): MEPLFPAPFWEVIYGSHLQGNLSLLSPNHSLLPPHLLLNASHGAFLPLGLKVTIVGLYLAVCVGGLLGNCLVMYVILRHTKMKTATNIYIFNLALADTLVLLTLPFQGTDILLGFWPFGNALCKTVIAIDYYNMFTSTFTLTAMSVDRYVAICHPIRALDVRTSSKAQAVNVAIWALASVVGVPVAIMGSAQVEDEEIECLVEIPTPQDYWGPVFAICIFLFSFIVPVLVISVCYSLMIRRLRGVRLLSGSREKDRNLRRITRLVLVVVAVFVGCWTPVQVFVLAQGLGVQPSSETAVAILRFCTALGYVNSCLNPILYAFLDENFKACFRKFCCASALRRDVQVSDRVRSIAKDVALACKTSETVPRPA
# method: Agonist activity at human NOP receptor expressed in CHO cells assessed as stimulation of [35S]GTPgammaS binding
# Assay type: functional, cell-based
parameter: EC50 (nM)
Output spec: scalar in nM, unitless text.

Can you look up the measured EC50 of H-FGGFTDARKKARK-NH2 for me?
22.3

---

# target.of.assay: Nociceptin receptor (Homo sapiens, UniProt P41146)
# method: Displacement of [3H]N/OFQ from human NOP receptor expressed in CHO cells
# Type: cell-based
parameter: Ki (nM)
Output spec: scalar in nM, unitless text.

So what Ki did H-FGGFTDARKKARK-NH2 get with Nociceptin receptor (Homo sapiens, UniProt P41146)?
0.54
